- experimental_target: human dOR (Homo sapiens (Human), UniProt P41143)
- Sequence (P41143 whole entry): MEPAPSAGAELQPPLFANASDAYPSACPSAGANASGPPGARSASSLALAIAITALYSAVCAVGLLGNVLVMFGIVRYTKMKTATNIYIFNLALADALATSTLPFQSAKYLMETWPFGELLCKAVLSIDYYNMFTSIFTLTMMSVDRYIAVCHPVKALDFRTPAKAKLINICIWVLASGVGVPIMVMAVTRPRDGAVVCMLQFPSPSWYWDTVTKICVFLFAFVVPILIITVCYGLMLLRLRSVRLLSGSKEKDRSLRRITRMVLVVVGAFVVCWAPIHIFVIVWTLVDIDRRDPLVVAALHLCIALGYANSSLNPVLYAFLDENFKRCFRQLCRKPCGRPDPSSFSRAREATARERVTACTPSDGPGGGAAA
- test_protocol: cell-based
- recorded_conditions: dOR cAMP Agonist Assay EC50, CHO Tag-lite human dOR stable cell line; forskolin
pEC50: −log10 of the molar value.
Each entry below lists one item and its recorded pEC50 value.

Worked examples follow.
# chemical_string, experimental_target, pEC50
rows = [
    ("C[C@H](CC(=O)NC[C@H](Cc1ccc2[nH]ncc2c1)N(C)C)c1cccc(F)c1", "human dOR (Homo sapiens (Human), UniProt P41143)", "5.52 to 6.52"),
    ("CNC(=O)c1cc(C)c(C[C@@H](CNC(=O)C[C@@H](c2ccccc2)C(C)(C)C)N(C)C)cc1F", "human dOR (Homo sapiens (Human), UniProt P41143)", "< 5.52"),
    ("CN(C)[C@H](CNC(=O)C[C@H](c1ccccc1)C1CC1)Cc1ccc2[nH]ncc2c1", "human dOR (Homo sapiens (Human), UniProt P41143)", "5.52 to 6.52"),
    ("Cc1cc(C(N)=O)cc(C)c1C[C@@H](CNC(=O)C[C@H](c1ccccc1)C1(C(F)(F)F)CC1)N(C)C", "human dOR (Homo sapiens (Human), UniProt P41143)", "< 5.52"),
    ("CNC(=O)c1ccc(C[C@@H](CNC(=O)C[C@H](c2ccccc2)C2(C(F)(F)F)CC2)N(C)C)c(C)c1", "human dOR (Homo sapiens (Human), UniProt P41143)", "< 5.52"),
]

IN: Give the value of pEC50 reported for the following: CN(C)[C@H](CNC(=O)C[C@H](c1ccc(Cl)c(Cl)c1)C1(C(F)(F)F)CC1)Cc1ccc(C(N)=O)cc1
OUT: > 6.52

IN: Query pEC50 for CNC(=O)c1ccc(C[C@@H](CNC(=O)C[C@@H](CC(C)C)c2ccccc2)N(C)C)cc1Cl
OUT: > 6.52

----------
- experimental_target: human mOR (Homo sapiens (Human), UniProt P35372)
- Sequence (P35372 whole entry): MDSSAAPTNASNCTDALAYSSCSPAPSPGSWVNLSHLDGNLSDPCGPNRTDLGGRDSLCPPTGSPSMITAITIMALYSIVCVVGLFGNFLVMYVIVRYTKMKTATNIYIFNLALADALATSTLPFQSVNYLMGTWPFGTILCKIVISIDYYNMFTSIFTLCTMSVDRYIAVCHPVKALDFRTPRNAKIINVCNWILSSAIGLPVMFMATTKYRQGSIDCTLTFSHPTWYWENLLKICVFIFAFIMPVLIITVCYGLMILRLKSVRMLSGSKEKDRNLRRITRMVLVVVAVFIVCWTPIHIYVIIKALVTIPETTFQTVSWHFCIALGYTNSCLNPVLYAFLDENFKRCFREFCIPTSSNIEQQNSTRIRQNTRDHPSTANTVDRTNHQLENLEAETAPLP
- test_protocol: cell-based
- recorded_conditions: read-out: mOR cAMP Antagonist Assay IC50
assay_readout: IC50

Example results:
# compound, IC50
rows = [
    ("Cc1cnc([C@@H](CC(=O)NC[C@H](Cc2ccc(C(N)=O)c(F)c2)N(C)C)C2(C(F)(F)F)CC2)s1", "0.3 to 3 µM"),
    ("CNC(=O)c1ccc(C[C@@H](CNC(=O)C[C@H](c2cnc(C)nc2)C2(C(F)(F)F)CC2)N(C)C)c(C)c1", "> 3 µM"),
    ("CN(C)[C@H](CNC(=O)C[C@H](c1ccncc1)C1(C(F)(F)F)CC1)Cc1ccc2[nH]c(=O)ccc2c1", "> 3 µM"),
    ("CNC(=O)c1ccc(C[C@@H](CNC(=O)CC(c2ccc(OC)nc2)C2(C(F)(F)F)CC2)N(C)C)c(Cl)c1 (some centres unmarked)", "0.3 to 3 µM"),
]

// moving on: another record for IC50
IN: Give the value of IC50 reported for the following: CC(C)C[C@H](CC(=O)NC[C@H](Cc1ccc(-c2cn[nH]c2)cc1Cl)N(C)C)c1ccccc1
OUT: 0.3 to 3 µM

----------
- experimental_target: human mOR (Homo sapiens (Human))
- test_protocol: cell-based
pIC50: −log10 of the molar value.
Measured pIC50 values are reported for all entries that follow.

# compound, value
rows = [
    ("CN(C)[C@H](CNC(=O)C[C@@H](CC1CC1)c1cccnc1)Cc1ccc(O)c(Cl)c1", "> 6.52"),
    ("CNC(=O)c1ccc(C[C@@H](CNC(=O)CC(c2ccc(F)cn2)C2(C(F)(F)F)CC2)N(C)C)c(Cl)c1 (some centres unmarked)", "> 6.52"),
    ("CN(C)[C@H](CNC(=O)C[C@H](c1cccnc1)C1(C(F)(F)F)CC1)Cc1ccc(C(N)=O)cc1Cl", "> 6.52"),
    ("COc1ncc(C(CC(=O)NC[C@H](Cc2ccc(C(N)=O)cc2Cl)N(C)C)C2(C(F)(F)F)CC2)cn1 (some centres unmarked)", "> 6.52"),
    ("Cc1ncc([C@@H](CC(=O)NC[C@H](Cc2ccc(C(N)=O)c(F)c2F)N(C)C)C2(C(F)(F)F)CC2)cn1", "> 6.52"),
    ("Cc1cc(O)ccc1C[C@@H](CNC(=O)CC(c1ncccn1)C1(C(F)(F)F)CC1)N(C)C (some centres unmarked)", "> 6.52"),
    ("Cc1cc(O)cc(C)c1C[C@@H](CNC(=O)C[C@H](CC1CC1)c1cccnc1)N(C)C", "> 6.52"),
    ("Cc1ncc([C@@H](CC(=O)NC[C@H](Cc2ccc(C(N)=O)c(F)c2Cl)N(C)C)C2(C(F)(F)F)CC2)s1", "> 6.52"),
]

IN: Return pIC50 for the following compound: CN(C)[C@H](CNC(=O)C[C@@H](CC1CC1)c1cccnc1)Cc1ccc(O)cc1
OUT: > 6.52

IN: For the compound Cc1cncc([C@@H](CC(=O)NC[C@H](Cc2ccc(O)cc2)N(C)C)C2(C(F)(F)F)CC2)c1 , give its reported pIC50.
OUT: > 6.52

IN: Provide one value: measured pIC50 of CC(C)[C@H](CC(=O)NC[C@H](Cc1ccc(O)c(Cl)c1)N(C)C)c1cccnc1
OUT: > 6.52

----------
- experimental_target: human dOR (Homo sapiens (Human))
- test_protocol: cell-based
- recorded_conditions: dOR cAMP Agonist Assay EC50, CHO Tag-lite human dOR stable cell line; forskolin
pEC50: −log10 of the molar value.
assay_readout: pEC50

IN: # return pEC50 for C[C@@H](CC(=O)NC[C@H](Cc1ccc2[nH]ncc2c1)N(C)C)c1ccc(F)cc1 [Compound 218] , test system: human dOR (Homo sapiens (Human))
OUT: < 5.52

IN: # assay system human dOR (Homo sapiens (Human)): give pEC50 of CNC(=O)c1ccc(C[C@@H](CNC(=O)C[C@H](c2ccccc2)C(C)(C)C)N2CCCC2)cc1F [Compound 157]
OUT: < 5.52

IN: Recall the reported pEC50 of CN(C)[C@H](CNC(=O)C[C@@H](c1ccccc1)C1CC1)Cc1ccc2c(c1)CC(=O)N2 [Compound 186] when tested on human dOR (Homo sapiens (Human)).
OUT: 5.52 to 6.52

IN: Please respond with reported pEC50 (system human dOR (Homo sapiens (Human))) for CC(C)[C@@H](CC(=O)NC[C@H](Cc1ccc(C(N)=O)cc1)N(C)C)c1ccccc1 [Compound 92] .
OUT: > 6.52

IN: Please indicate recorded pEC50 of CNC(=O)c1ccc(C[C@@H](CNC(=O)C[C@@H](c2ccccc2)C(C)C)N(C)C)cc1F [Compound 162] measured with human dOR (Homo sapiens (Human)).
OUT: 5.52 to 6.52

----------
Listing of entries alongside the reported pIC50.
- experimental_target: human mOR (Homo sapiens (Human), UniProt P35372)
- test_protocol: cell-based
pIC50: −log10 of the molar value.

Answered examples (3):
# chemical_string, pIC50
records = [
    ("CN(C)[C@H](CNC(=O)C[C@H](c1ccccc1)C1(C(F)(F)F)CC1)Cc1ccc(C(N)=O)c(F)c1", "> 6.52"),
    ("CN(C)[C@H](CNC(=O)C[C@H](c1cccnc1)C1(C(F)(F)F)CC1)Cc1ccc2[nH]ncc2c1F", "> 6.52"),
    ("CN(C)[C@H](CNC(=O)C[C@@H](c1ccccc1)C1CC1)Cc1ccc2[nH]c(=O)oc2c1", "> 6.52"),
]

IN: Please give the documented pIC50 of CN(C)[C@H](CNC(=O)C[C@H](c1ccncc1)C1(C(F)(F)F)CC1)Cc1ccc(O)c(Cl)c1
OUT: > 6.52

----------
Listing of recorded pIC50 by entry.
- experimental_target: human mOR (Homo sapiens (Human), UniProt P35372)
- test_protocol: cell-based
pIC50: −log10 of the molar value.

# molecule, value
data = [
    ("Cc1cc(O)ccc1C[C@@H](CNC(=O)CC(c1cccnc1)C1(C(F)(F)F)CC1)N(C)C (some centres unmarked)", "> 6.52"),
    ("CNC(=O)c1ccc2c(c1)CN(C)[C@H](CNC(=O)C[C@H](c1ccccc1)C(C)(C)C)C2", "5.52 to 6.52"),
    ("CNC(=O)c1ccc(C[C@@H](CNC(=O)C[C@@H](CC2CC2)c2cccnc2)N(C)C)c(C)c1", "< 5.52"),
    ("Cc1ncc([C@@H](CC(=O)NC[C@H](Cc2cc(F)c(C(N)=O)c(F)c2)N(C)C)C2(C(F)(F)F)CC2)cn1", "< 5.52"),
    ("CN1Cc2cc(O)ccc2C[C@H]1CNC(=O)C[C@H](c1ccccc1)C(C)(C)C", "> 6.52"),
    ("CN(C)[C@H](CNC(=O)C[C@H](c1ccccc1)C1CC1)Cc1ccc(O)cc1Cl", "> 6.52"),
    ("CN[C@H](CNC(=O)C[C@H](c1ccccc1)C1(C(F)(F)F)CC1)Cc1ccc(C(N)=O)cc1", "> 6.52"),
    ("CN(C)[C@H](CNC(=O)C[C@H](c1cccnc1)C1(C)CC1)Cc1ccc(O)cc1C(F)(F)F", "> 6.52"),
    ("Cc1cc(O)cc(C)c1C[C@@H](CNC(=O)C[C@H](c1cccnc1)C1(C(F)(F)F)CC1)N(C)C", "> 6.52"),
    ("CN(C)[C@H](CNC(=O)CC(c1ccc(C(F)(F)F)nc1)C1(C(F)(F)F)CC1)Cc1ccc(O)cc1 (some centres unmarked)", "> 6.52"),
]

IN: Return pIC50 (reported value) for this molecule: Cc1c(C[C@@H](CNC(=O)C[C@H](c2ccncc2)C2(C(F)(F)F)CC2)N(C)C)ccc2[nH]c(=O)oc12
OUT: > 6.52

IN: Return pIC50 for the following molecule: CN(C)[C@H](CNC(=O)C[C@H](CC1CC1)c1cccnc1)Cc1ccc(O)c(Cl)c1
OUT: > 6.52

IN: Answer with the recorded pIC50 for the molecule listed here: Cc1cc(O)ccc1C[C@@H](CNC(=O)C[C@H](c1cccnc1)C1(C(F)(F)F)CC1)N(C)C
OUT: > 6.52

IN: Entry Cc1cnc([C@@H](CC(=O)NC[C@H](Cc2ccc(C(N)=O)c(F)c2)N(C)C)C2(C(F)(F)F)CC2)nc1 needs its pIC50 filled in; supply it.
OUT: 5.52 to 6.52
